# Species on record: Rattus norvegicus
# Procedure text: Open TG-GATES - Regimen: Daily Repeat
# Format: toxicity, organism-based, Sprague-Dawley
# Design: regimen Daily Repeat, gender Male, age 6 weeks
# Condition info: in vivo, po, 300 mg/kg, […], tissue Blood, route gavage, dose level Middle, time 28 day
Recorded endpoint: Ret (%)
All answers are understood in %, so give the number only.

The following compounds have reported results that may help.
CC(S)C(=O)NCC(=O)O (centres undefined) = 2.6
CC(=O)[C@@]1(O)CC[C@H]2[C@@H]3C=C(Cl)C4=CC(=O)CC[C@]4(C)[C@H]3CC[C@@]21C = 2

Value lookup for Ret; key = O=C(O)c1ccccc1Nc1ccccc1
2.7

Value lookup for Ret; key = CCCCNC(=O)NS(=O)(=O)c1ccc(C)cc1 [TOLBUTAMIDE]
2.2

* * *

# Organism: Rattus norvegicus
# Procedure text: Open TG-GATES - Regimen: Single
# Type: toxicity, organism-based, Sprague-Dawley
# Parameters: regimen Single, gender Male, age 6 weeks
# Condition info: in vivo, po, 0 mg/kg, 6 h, tissue Kidney, route gavage, dose level Control
Recorded endpoint: KIDNEY_TOTAL (g)
All answers are understood in g, so give the number only.

The following molecules have reported results that may help.
COc1cc2ncnc(Nc3ccc(F)c(Cl)c3)c2cc1OCCCN1CCOCC1 = 1.9
O=C(O)c1ccccc1Nc1ccccc1 = 1.8

Value lookup for KIDNEY_TOTAL; key = CCCCNC(=O)NS(=O)(=O)c1ccc(C)cc1 [TOLBUTAMIDE]
1.9

Value lookup for KIDNEY_TOTAL; key = Nc1ccc(Cc2ccc(N)cc2)cc1
1.8

Value lookup for KIDNEY_TOTAL; key = CC(S)C(=O)NCC(=O)O (stereo not drawn)
1.9

Value lookup for KIDNEY_TOTAL; key = COc1ccc([C@@H]2Sc3ccccc3N(CCN(C)C)C(=O)[C@@H]2OC(C)=O)cc1
1.7

* * *

Listing of entries alongside the reported K.
# Species on record: Rattus norvegicus
# Procedure text: Open TG-GATES - Regimen: Daily Repeat
# Format: toxicity, organism-based, Sprague-Dawley
# Set-up: regimen Daily Repeat, gender Male, age 6 weeks
# Condition info: in vivo, po, 0 mg/kg, 72 h, tissue Plasma, route gavage, dose level Control, time 3 day
All answers are understood in meq/L, so give the number only.

The following compounds have reported results that may help.
CCO = 4.6
O=c1ccc2ccccc2o1 = 4.9

Value lookup for K; key = NS(=O)(=O)c1cc(C(=O)O)c(NCc2ccco2)cc1Cl [FUROSEMIDE]
3.8

Value lookup for K; key = CN(C/C=C/C#CC(C)(C)C)Cc1cccc2ccccc12
4.2

Value lookup for K; key = CCCCC1C(=O)N(c2ccccc2)N(c2ccccc2)C1=O
5.1

Value lookup for K; key = CN(CCOc1ccc(CC2SC(=O)NC2=O)cc1)c1ccccn1.O=C(O)/C=C\C(=O)O (stereo not drawn) [ROSIGLITAZONE MALEATE]
4.7

Value lookup for K; key = CC(S)C(=O)NCC(=O)O (stereo not drawn)
4.3

Value lookup for K; key = Nc1ccc(Cc2ccc(N)cc2)cc1
4

Value lookup for K; key = CCCCNC(=O)NS(=O)(=O)c1ccc(C)cc1 [TOLBUTAMIDE]
4.1

* * *

Listing of entries alongside the reported KIDNEY_L.
# Species: Rattus norvegicus
# Procedure text: Open TG-GATES - Regimen: Daily Repeat
# Assay type: toxicity, organism-based, Sprague-Dawley
# Design: regimen Daily Repeat, gender Male, age 6 weeks
# Condition info: in vivo, po, 0 mg/kg, […], tissue Kidney, route gavage, dose level Control, time 28 day
All answers are understood in g, so give the number only.

Value lookup for KIDNEY_L; key = CCCCNC(=O)NS(=O)(=O)c1ccc(C)cc1 [TOLBUTAMIDE]
1.5

Value lookup for KIDNEY_L; key = CN(C/C=C/C#CC(C)(C)C)Cc1cccc2ccccc12 [TERBINAFINE]
1.4

Value lookup for KIDNEY_L; key = CCCCC1C(=O)N(c2ccccc2)N(c2ccccc2)C1=O [PHENYLBUTAZONE]
1.4
